- System: MDR1-MDCK cell monolayers
- PARTICULARS: dog, MDCK-MDR1, 120 min, 5 μM, pH 7.4
Kindly state MDCK-MDR1: % Recov A-B (%) for each of the entries shown.
Answer format: numeric, % implied, no suffix.

MDCK-MDR1: % Recov A-B (%) measured on CN(c1cnc(-c2cc(F)c(C3=CC(F)NC(F)=C3)cc2O)cn1)[C@@H]1C[C@@]2(C)CC[C@](C)(N2)[C@@H]1F (single isomer, unassigned) = 18

Item: Oc1cc(-c2cn[nH]c2)ccc1-c1cnc(O[C@H]2CC3CC[C@@H](N3)[C@H]2F)cn1 (single isomer, unassigned) | MDCK-MDR1: % Recov A-B (%): 68

Looking up CN(c1cnc(-c2ccc(-c3ccn(CF)c(=O)c3)cc2O)cn1)[C@@H]1CC2CC[C@H](N2)[C@@H]1F (single isomer, unassigned) , I see its MDCK-MDR1: % Recov A-B (%) listed as 74

response.value for COc1cc(-c2ccc(-c3cnc(N(C)[C@@H]4CC5CC[C@H](N5)[C@@H]4F)cn3)c(O)c2)ccn1 (single isomer, unassigned) (field: MDCK-MDR1: % Recov A-B (%)) = 18

Per the record, CNC(=O)/C=C/c1cc(O)c(-c2cnc(N(C)[C@@H]3CC4CC[C@H](N4)[C@@H]3F)cn2)cc1F (single isomer, unassigned) has MDCK-MDR1: % Recov A-B (%) of 93

---

- Test system: MDR1-MDCK cell monolayers
- PARTICULARS: dog, MDCK-MDR1, 120 min, 5 μM, pH 7.4
Label condition met when MDCK-MDR1: % Recov B-A (%) is strictly below 70%; at or above that, label condition not met.

IN: Input CN(C)C(=O)c1cc(O)c(-c2cnc(N(C)[C@H]3C[C@@H]4CCC(N4)[C@H]3F)cn2)cc1F (single isomer, unassigned) ; condition: MDCK-MDR1: % Recov B-A (%) strictly below 70%. Does it hold?
OUT: condition not met

IN: Please check: MDCK-MDR1: % Recov B-A (%) for Oc1cc(-c2cn[nH]c2)c(F)cc1-c1cnc(N(C2CC2)[C@@H]2CC3CC[C@H](N3)[C@@H]2F)cn1 (single isomer, unassigned) , strictly under 70% or not?
OUT: condition not met

IN: Hello, is MDCK-MDR1: % Recov B-A (%) of the following compound strictly smaller than 70%? CN(c1cnc(-c2ccc(-c3cn[nH]c3)cc2O)cn1)[C@@H]1CC2CC[C@H](N2)[C@H]1F (single isomer, unassigned)
OUT: condition not met

IN: Problem: For the compound CN(c1cnc(-c2cc(F)c(C3=CC(F)NC(F)=C3)cc2O)cn1)[C@H]1C[C@]2(C)CC[C@@](C)(N2)[C@H]1F (single isomer, unassigned) , is MDCK-MDR1: % Recov B-A (%) under 70%?
OUT: condition met

IN: Please state whether MDCK-MDR1: % Recov B-A (%) is below 70% for Cn1cc(-c2ccc(-c3cnc(N(C4CC4)[C@@H]4CC5CC[C@H](N5)[C@@H]4F)cn3)c(O)c2)cn1 (single isomer, unassigned) [Compound 49E2]
OUT: condition met

IN: Strictly below 70% in MDCK-MDR1: % Recov B-A (%)? Cn1cnc(-c2ccc(-c3cnc(N(C4CC4)[C@H]4C[C@@H]5CCC(N5)[C@H]4F)cn3)c(O)c2)cc1=O (single isomer, unassigned)
OUT: condition not met

IN: Could you please tell me whether MDCK-MDR1: % Recov B-A (%) recorded for CNC(=O)/C=C/c1cc(O)c(-c2cnc(N(C)[C@H]3C[C@]4(C)CC[C@@](C)(N4)[C@H]3F)cn2)cc1F is less than 70%?
OUT: condition not met

IN: Field: below-cutoff. Rule: recorded MDCK-MDR1: % Recov B-A (%) strictly less than 70%. Subject: CN(c1cnc(-c2cc(F)c(-n3ccnn3)cc2O)cn1)[C@@H]1CC2CC[C@H](N2)[C@@H]1F (single isomer, unassigned)
OUT: condition not met

IN: Does the reported MDCK-MDR1: % Recov B-A (%) of COc1cc(-c2ccc(-c3cnc(N(C)[C@H]4C[C@@H]5COCC(N5)[C@H]4F)cn3)c(O)c2)ccn1 (single isomer, unassigned) stay below 70%?
OUT: condition not met

Reference source for all entries: patent US11964971B2
